Molecular target: IGPD (Rv1601) (Mycobacterium tuberculosis)
Sequence (P9WML9 whole entry, looked up): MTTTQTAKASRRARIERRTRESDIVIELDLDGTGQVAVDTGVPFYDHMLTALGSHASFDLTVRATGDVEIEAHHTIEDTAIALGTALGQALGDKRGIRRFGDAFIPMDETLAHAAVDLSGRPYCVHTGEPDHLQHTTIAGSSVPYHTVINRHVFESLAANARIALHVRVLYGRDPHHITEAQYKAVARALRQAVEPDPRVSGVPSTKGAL
pIC50: −log10 of the molar value.

MOLECULE	pIC50
CC(C)C(N)c1ncnn1C (stereo not drawn)	4.36
NCCSc1ncn[nH]1	4.11
CC(N)c1ncnn1C (stereo not drawn)	4.48

meta.source: patent US20250388554A1
